assaySystem: HLA-A2 (human)
experimentDescription: experimental peptide-HLA binding affinity; method not described
experimentalEndpoint: Binding affinity (µM)
Kindly answer with a numeric value in µM, unit omitted.

[
  {
    "binder": "YMLDLQPETTD (modifications not checked) [HPV16 E7/11-21 peptide …]",
    "Binding affinity [µM]": 2.37
  }
]

Entry MLDLQPETT (modifications not checked) [HPV16 E7/12-20 peptide …] — recorded Binding affinity = 3.6

Entry YMLDLQPE (modifications not checked) [HPV16 E7/11-18 peptide YMLDLQPE] — recorded Binding affinity = 8.07

Entry YMLDLQPETT (modifications not checked) [HPV16 E7/11-20 peptide …] — recorded Binding affinity = 2.19

Entry MLDLQPET (modifications not checked) [HPV16 E7/12-19 peptide MLDLQPET] — recorded Binding affinity = 53.7

Hey, just so you know, these numbers are from patent US20190241619A1.
